pKi: −log10 of the molar value.
Listed here: compounds with reported pKi for Retinoic acid receptor RXR-alpha (Homo sapiens, UniProt P19793).

>  <Molecular string>
CCCOc1c(\C(C)=C/C=C/C(C)=C/C(=O)O)cc(C(C)C)cc1C(C)C

>  <pKi>
8.52

$$$$
>  <Molecular string>
CCOc1c(\C(C)=C/C=C/C(C)=C/C(=O)O)cc(C(C)(C)CC)cc1C(C)(C)CC

>  <pKi>
8.70

$$$$
>  <Molecular string>
CCCCOc1c(\C(C)=C/C=C/C(C)=C/C(=O)O)cc(C(C)C)cc1C(C)C

>  <pKi>
8.40

$$$$
>  <Molecular string>
CCCOc1c(\C(C)=C/C=C/C(C)=C/C(=O)O)cc(C(C)(C)CC)cc1C(C)(C)CC

>  <pKi>
7.64

$$$$
>  <Molecular string>
CCOc1c(\C(C)=C/C=C/C(C)=C/C(=O)O)cc(C(C)(C)C)cc1C(C)(C)C

>  <pKi>
7.96

$$$$
>  <Molecular string>
COc1c(\C(C)=C/C=C/C(C)=C/C(=O)O)cc(C(C)C)cc1C(C)C

>  <pKi>
9.00

$$$$

----------
Below are compounds with their EC50 as measured on RXR alpha/PPAR gamma (Homo sapiens, UniProt P19793).
Sequence (P37231 whole entry, one chain of several): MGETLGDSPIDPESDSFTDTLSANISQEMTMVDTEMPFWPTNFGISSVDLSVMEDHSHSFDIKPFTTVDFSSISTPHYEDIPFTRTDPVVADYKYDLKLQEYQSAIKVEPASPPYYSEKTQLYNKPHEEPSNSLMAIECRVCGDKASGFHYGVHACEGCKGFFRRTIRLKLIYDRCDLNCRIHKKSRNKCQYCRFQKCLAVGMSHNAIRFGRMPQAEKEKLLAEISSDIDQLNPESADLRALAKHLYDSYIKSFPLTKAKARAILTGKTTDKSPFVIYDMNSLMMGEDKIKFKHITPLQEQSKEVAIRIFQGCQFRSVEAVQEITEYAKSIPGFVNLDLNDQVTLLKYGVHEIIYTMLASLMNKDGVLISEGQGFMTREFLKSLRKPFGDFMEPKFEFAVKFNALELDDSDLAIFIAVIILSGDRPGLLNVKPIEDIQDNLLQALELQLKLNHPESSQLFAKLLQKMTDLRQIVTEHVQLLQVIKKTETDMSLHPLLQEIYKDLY
Measurement type: EC50 (nM)

>  <Molecular string>
CCCOc1c(\C(C)=C/C=C/C(C)=C/C(=O)O)cc(C(C)C)cc1C(C)C

>  <Assay value>
5

$$$$
>  <Molecular string>
CCCOc1c(\C(C)=C/C=C/C(C)=C/C(=O)O)cc(C(C)(C)C)cc1C(C)(C)C

>  <Assay value>
154

$$$$
>  <Molecular string>
C/C(=C/C=C/C(C)=C/C(=O)O)c1cc(C(C)(C)C)cc(C(C)(C)C)c1OCC(F)(F)F

>  <Assay value>
2

$$$$
>  <Molecular string>
CCOc1c(\C(C)=C/C=C/C(C)=C/C(=O)O)cc(C(C)(C)C)cc1C(C)(C)C

>  <Assay value>
2

$$$$
>  <Molecular string>
CCC(C)(C)c1cc(\C(C)=C/C=C/C(C)=C/C(=O)O)c(OCC(F)F)c(C(C)(C)CC)c1

>  <Assay value>
11

$$$$
>  <Molecular string>
C/C(=C/C=C/C(C)=C/C(=O)O)c1cc(C(C)C)cc(C(C)C)c1OCC(F)F

>  <Assay value>
10

$$$$
>  <Molecular string>
C/C(=C/C=C/C(C)=C/C(=O)O)c1cc(C(C)C)cc(C(C)C)c1OCC(F)(F)F

>  <Assay value>
3

$$$$
>  <Molecular string>
CCC(C)(C)c1cc(\C(C)=C/C=C/C(C)=C/C(=O)O)c(OC)c(C(C)(C)CC)c1

>  <Assay value>
6

$$$$
>  <Molecular string>
CCCCOc1c(\C(C)=C/C=C/C(C)=C/C(=O)O)cc(C(C)C)cc1C(C)C

>  <Assay value>
12

$$$$
>  <Molecular string>
COc1c(\C(C)=C/C=C/C(C)=C/C(=O)O)cc(C(C)(C)C)cc1C(C)(C)C

>  <Assay value>
7

$$$$

----------
# Target desc: Retinoic acid receptor RXR-alpha (Homo sapiens)
# Sequence (P19793 whole entry): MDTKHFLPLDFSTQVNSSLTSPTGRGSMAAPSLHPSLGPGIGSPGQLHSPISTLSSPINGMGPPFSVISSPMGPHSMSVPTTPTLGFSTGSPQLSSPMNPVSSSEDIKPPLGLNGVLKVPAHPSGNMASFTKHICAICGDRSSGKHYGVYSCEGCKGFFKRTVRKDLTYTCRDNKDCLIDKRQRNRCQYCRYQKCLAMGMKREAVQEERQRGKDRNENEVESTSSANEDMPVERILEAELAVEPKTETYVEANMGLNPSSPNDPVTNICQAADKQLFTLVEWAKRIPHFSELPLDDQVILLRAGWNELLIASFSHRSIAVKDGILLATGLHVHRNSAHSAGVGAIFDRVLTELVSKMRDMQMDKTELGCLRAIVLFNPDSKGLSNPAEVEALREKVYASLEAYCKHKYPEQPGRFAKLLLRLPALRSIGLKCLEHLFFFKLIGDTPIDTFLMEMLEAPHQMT
# Test description: Inhibitory activity against Retinoic acid receptor RXR-alpha antagonist was determined in vitro
This section presents compounds with their documented IC50 values.
Measurement type: IC50 (nM)

>  <Molecular string>
CCCCOc1c(\C(C)=C/C=C/C(C)=C/C(=O)O)cc(C(C)C)cc1C(C)C

>  <Measurement type>
IC50

>  <Assay value>
4

$$$$
>  <Molecular string>
CCC(C)(C)c1cc(\C(C)=C/C=C/C(C)=C/C(=O)O)c(OCC(F)F)c(C(C)(C)CC)c1

>  <Measurement type>
IC50

>  <Assay value>
16

$$$$
>  <Molecular string>
CCCOc1c(\C(C)=C/C=C/C(C)=C/C(=O)O)cc(C(C)C)cc1C(C)C

>  <Measurement type>
IC50

>  <Assay value>
4

$$$$
>  <Molecular string>
CCCOc1c(\C(C)=C/C=C/C(C)=C/C(=O)O)cc(C(C)(C)C)cc1C(C)(C)C

>  <Measurement type>
IC50

>  <Assay value>
43

$$$$
>  <Molecular string>
C/C(=C/C=C/C(C)=C/C(=O)O)c1cc(C(C)C)cc(C(C)C)c1OCCF

>  <Measurement type>
IC50

>  <Assay value>
4

$$$$
>  <Molecular string>
C/C(=C/C=C/C(C)=C/C(=O)O)c1cc(C(C)C)cc(C(C)C)c1OCC(F)F

>  <Measurement type>
IC50

>  <Assay value>
1

$$$$
>  <Molecular string>
CCOc1c(\C(C)=C/C=C/C(C)=C/C(=O)O)cc(C(C)(C)CC)cc1C(C)(C)CC

>  <Measurement type>
IC50

>  <Assay value>
17

$$$$
>  <Molecular string>
C/C(=C/C=C/C(C)=C/C(=O)O)c1cc(C(C)C)cc(C(C)C)c1OCC(F)(F)F

>  <Measurement type>
IC50

>  <Assay value>
6

$$$$
>  <Molecular string>
CCOc1c(\C(C)=C/C=C/C(C)=C/C(=O)O)cc(C(C)(C)C)cc1C(C)(C)C

>  <Measurement type>
IC50

>  <Assay value>
8

$$$$
>  <Molecular string>
CCCOc1c(\C(C)=C/C=C/C(C)=C/C(=O)O)cc(C(C)(C)CC)cc1C(C)(C)CC

>  <Measurement type>
IC50

>  <Assay value>
13

$$$$
>  <Molecular string>
C/C(=C/C=C/C(C)=C/C(=O)O)c1cc(C(C)(C)C)cc(C(C)(C)C)c1OCC(F)(F)F

>  <Measurement type>
IC50

>  <Assay value>
8

$$$$

Every entry's value here was drawn from ChEMBL document CHEMBL1145809.
